experiment: Mouse Pharmacokinetic Studies; assay type: in vivo; conditions: male BALB/c mice, 3 mg/kg IV tail bolus, plasma, read-out: Vss
measured.property: Vd (L/kg)

- CC(C)Cn1c(=O)n(C[C@H](O)CN2CCc3ccccc3C2)c(=O)c2ccc(Br)cc21 [Compound 70]: 4.88

###

experiment: Mouse Pharmacokinetic Studies; assay type: in vivo; details: male BALB/c mice, 3 mg/kg IV tail bolus, plasma
measured.property: C0 (ng/mL)

• CC(C)Cn1c(=O)n(C[C@H](O)CN2CCc3ccccc3C2)c(=O)c2ccc(Br)cc21 = 1520

###

Entries with reported log10(IC50) on UniProt:O14744
Sequence (O14744 2-637): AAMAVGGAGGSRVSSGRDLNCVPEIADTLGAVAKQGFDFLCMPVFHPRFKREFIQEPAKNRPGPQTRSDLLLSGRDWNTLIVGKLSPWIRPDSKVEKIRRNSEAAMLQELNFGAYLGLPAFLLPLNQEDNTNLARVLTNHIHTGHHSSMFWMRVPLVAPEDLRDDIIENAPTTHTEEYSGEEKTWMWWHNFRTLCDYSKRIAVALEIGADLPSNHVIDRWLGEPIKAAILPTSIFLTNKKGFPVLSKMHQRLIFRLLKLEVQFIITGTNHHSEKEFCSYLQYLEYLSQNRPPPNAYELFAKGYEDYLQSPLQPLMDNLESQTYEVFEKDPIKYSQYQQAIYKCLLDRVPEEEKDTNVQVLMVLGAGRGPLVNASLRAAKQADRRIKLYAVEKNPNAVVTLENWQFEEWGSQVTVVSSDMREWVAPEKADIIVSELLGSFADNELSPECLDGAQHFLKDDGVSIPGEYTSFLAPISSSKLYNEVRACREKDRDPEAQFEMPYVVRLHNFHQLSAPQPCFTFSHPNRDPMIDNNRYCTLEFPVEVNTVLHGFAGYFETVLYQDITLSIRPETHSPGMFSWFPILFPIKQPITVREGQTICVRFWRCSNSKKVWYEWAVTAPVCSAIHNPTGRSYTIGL
Sequence (Q9BQA1 2-342 partner): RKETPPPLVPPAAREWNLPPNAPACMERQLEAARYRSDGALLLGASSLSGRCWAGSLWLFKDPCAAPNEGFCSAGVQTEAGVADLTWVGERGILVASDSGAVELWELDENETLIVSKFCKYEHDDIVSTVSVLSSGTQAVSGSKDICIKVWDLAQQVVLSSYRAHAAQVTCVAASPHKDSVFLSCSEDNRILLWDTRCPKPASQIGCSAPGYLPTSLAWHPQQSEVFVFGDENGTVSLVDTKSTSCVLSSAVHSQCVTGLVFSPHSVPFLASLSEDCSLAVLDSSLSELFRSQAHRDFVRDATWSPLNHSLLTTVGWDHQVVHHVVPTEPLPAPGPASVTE
measured.property: log10(IC50) (log10 of the value in nM)

* O=c1[nH]c2ccc(O)cc2c(=O)n1C[C@H](O)CN1CCc2ccccc2C1 [Compound 83] | 2.92
* O=c1c2ccccc2n(CC2CCOCC2)c(=O)n1CC(O)CN1CCc2ccccc2C1 (centres unmarked) [Compound 105] | 2.96
* Cc1cccc2c1c(=O)n(C[C@H](O)CN1CCc3ccccc3C1)c(=O)n2CC1CC1 [Compound 85] | 1.46
* CC(C)Cn1c(=O)n(C[C@@H](O)CN2CCc3ccccc3C2)c(=O)c2ccccc21 [Compound 101] | 3.65
* O=c1c2ccccc2n(CC2CCC2)c(=O)n1C[C@H](O)CN1CCc2ccccc2C1 [Compound 92] | 1.56
* O=c1c2ccccc2n(CC2CC2(F)F)c(=O)n1C[C@H](O)CN1CCc2ccccc2C1 (some centres unmarked) [Compound 90] | 2.08
* Cc1ccc2c(c1)c(=O)n(C[C@H](O)CN1CCc3ccccc3C1)c(=O)n2CC1CC1 [Compound 88] | 1.32
* COc1ccc(Cn2c(=O)c3ccccc3n(CC(O)CN3CCc4ccccc4C3)c2=O)cc1 (centres unmarked) [Compound 97] | 3.97
